These entries and their values trace back to ChEMBL document CHEMBL4177724.

# test: Cytotoxicity against human MRC5 cells assessed as reduction in cell viability incubated for 24 hrs by MTS assay
# Type: cell-based
# test parameters: read-out: LC50
Non-standard residues stand in square brackets, D forms with d. Residues, ends and D or L forms follow the SMILES beside them. Nspe = C[C@H](NCC(=O)O)c1ccccc1; Nlys = NCCCCNCC(=O)O
quantity: CC50 at 24 h (µM)
Field format: number, assumed µM, no unit text.

Some solved cases for reference:
molecule=Cc1ccc([C@H](C)N(CC(N)=O)C(=O)CN(C(=O)CN(CCCCN)C(=O)CN(C(=O)CN(C(=O)CN(CCCCN)C(=O)CN(C(=O)CN(C(=O)CN(CCCCN)C(=O)CN(C(=O)CN(C(=O)CNCCCCN)[C@@H](C)c2ccc(C)cc2)[C@@H](C)c2ccc(C)cc2)[C@@H](C)c2ccc(C)cc2)[C@@H](C)c2ccc(C)cc2)[C@@H](C)c2ccc(C)cc2)[C@@H](C)c2ccc(C)cc2)[C@@H](C)c2ccc(C)cc2)cc1 reported_measurement=8
molecule="C[C@@H](c1ccccc1)N(CC(N)=O)C(=O)CN(C(=O)CN(CCCCN)C(=O)CN(C(=O)CN(C(=O)CN(CCCCN)C(=O)CN(C(=O)CN(C(=O)CN(CCCCN)C(=O)CN(C(=O)CN(C(=O)CNCCCCN)[C@@H](C)c1ccccc1)[C@@H](C)c1ccccc1)[C@@H](C)c1ccccc1)[C@@H](C)c1ccccc1)[C@@H](C)c1ccccc1)[C@@H](C)c1ccccc1)[C@@H](C)c1ccccc1 (H-[Nlys][Nspe][Nspe][Nlys][Nspe][Nspe][Nlys][Nspe][Nspe][Nlys][Nspe][Nspe]-NH2)" reported_measurement=8
molecule=C[C@@H](c1ccc(Cl)cc1)N(CC(N)=O)C(=O)CN(C(=O)CN(CCCCN)C(=O)CN(C(=O)CN(C(=O)CN(CCCCN)C(=O)CN(C(=O)CN(C(=O)CN(CCCCN)C(=O)CN(C(=O)CN(C(=O)CNCCCCN)[C@@H](C)c1ccc(Cl)cc1)[C@@H](C)c1ccc(Cl)cc1)[C@@H](C)c1ccc(Cl)cc1)[C@@H](C)c1ccc(Cl)cc1)[C@@H](C)c1ccc(Cl)cc1)[C@@H](C)c1ccc(Cl)cc1)[C@@H](C)c1ccc(Cl)cc1 reported_measurement=3

Turning now to a further record.
Q: Look up CC50 at 24 h of C[C@@H](c1ccc(F)cc1)N(CC(N)=O)C(=O)CN(C(=O)CN(CCCCN)C(=O)CN(C(=O)CN(C(=O)CN(CCCCN)C(=O)CN(C(=O)CN(C(=O)CN(CCCCN)C(=O)CN(C(=O)CN(C(=O)CNCCCCN)[C@@H](C)c1ccc(F)cc1)[C@@H](C)c1ccc(F)cc1)[C@@H](C)c1ccc(F)cc1)[C@@H](C)c1ccc(F)cc1)[C@@H](C)c1ccc(F)cc1)[C@@H](C)c1ccc(F)cc1)[C@@H](C)c1ccc(F)cc1 and report it.
A: 9.5

###

# test: Induction of hemolysis in Sprague-Dawley rat erythrocytes incubated at 37 degC for 60 mins by spectrophotometry
# Type: cell-based, Erythrocyte
# test parameters: Sprague-Dawley, erythrocytes, read-out: HD50
Non-standard residues stand in square brackets, D forms with d. Residues, ends and D or L forms follow the SMILES beside them. Nspe = C[C@H](NCC(=O)O)c1ccccc1; Nlys = NCCCCNCC(=O)O
quantity: HC50 at 1 h

Q: Look up HC50 at 1 h of C[C@@H](c1ccccc1)N(CC(=O)N(CCCCN)CC(=O)N(CC(=O)N(CC(=O)N(CCCCN)CC(=O)N(CC(=O)N(CC(=O)N(CCCCN)CC(=O)N(CC(=O)N(CC(=O)N(CCCCN)CC(N)=O)[C@@H](C)c1ccccc1)[C@@H](C)c1ccccc1)[C@@H](C)c1ccccc1)[C@@H](C)c1ccccc1)[C@@H](C)c1ccccc1)[C@@H](C)c1ccccc1)C(=O)CN(C(=O)CNCCCCN)[C@@H](C)c1ccccc1 (H-[Nlys][Nspe][Nspe][Nlys][Nspe][Nspe][Nlys][Nspe][Nspe][Nlys][Nspe][Nspe][Nlys]-NH2) and report it.
A: > 200 µM

Q: Look up HC50 at 1 h of Cc1ccc([C@H](C)N(CC(N)=O)C(=O)CN(C(=O)CN(CCCCN)C(=O)CN(C(=O)CN(C(=O)CN(CCCCN)C(=O)CN(C(=O)CN(C(=O)CN(CCCCN)C(=O)CN(C(=O)CN(C(=O)CNCCCCN)[C@@H](C)c2ccc(C)cc2)[C@@H](C)c2ccc(C)cc2)[C@@H](C)c2ccc(C)cc2)[C@@H](C)c2ccc(C)cc2)[C@@H](C)c2ccc(C)cc2)[C@@H](C)c2ccc(C)cc2)[C@@H](C)c2ccc(C)cc2)cc1 and report it.
A: 8.3 µM

Q: Look up HC50 at 1 h of C[C@@H](c1ccccc1)N(CC(=O)N(CCCCN)CC(=O)N(CC(=O)N(CC(=O)N(CCCCN)CC(=O)N(CC(=O)N(CC(=O)N(CCCCN)CC(N)=O)[C@@H](C)c1ccccc1)[C@@H](C)c1ccccc1)[C@@H](C)c1ccccc1)[C@@H](C)c1ccccc1)C(=O)CN(C(=O)CNCCCCN)[C@@H](C)c1ccccc1 (H-[Nlys][Nspe][Nspe][Nlys][Nspe][Nspe][Nlys][Nspe][Nspe][Nlys]-NH2) and report it.
A: > 200 µM
